Kindly state 0X2R agonist activity (3 μM, %) for each of the entries shown.
Biological target: human orexin type 2 receptor (Homo sapiens, UniProt O43614)
Construct: expressed in transfected cells
Sequence (O43614 1-444): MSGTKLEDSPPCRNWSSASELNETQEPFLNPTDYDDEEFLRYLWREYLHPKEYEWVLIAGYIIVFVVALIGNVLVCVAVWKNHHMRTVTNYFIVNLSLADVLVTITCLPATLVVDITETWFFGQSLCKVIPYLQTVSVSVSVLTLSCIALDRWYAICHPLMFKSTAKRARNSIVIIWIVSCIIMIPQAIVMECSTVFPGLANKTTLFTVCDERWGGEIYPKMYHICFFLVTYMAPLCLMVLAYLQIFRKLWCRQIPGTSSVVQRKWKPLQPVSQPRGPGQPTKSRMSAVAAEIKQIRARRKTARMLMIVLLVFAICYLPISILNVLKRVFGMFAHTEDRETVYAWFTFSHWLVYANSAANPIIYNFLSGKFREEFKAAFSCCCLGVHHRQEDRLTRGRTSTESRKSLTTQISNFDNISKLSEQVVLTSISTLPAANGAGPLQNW
Assay: Measurement of orexin type 2 receptor agonist activity (calcium fluorescence, Fluo-4 AM, FDSS) in CHO cells forcibly expressing human OX2 receptor
Type: cell-based
Conditions: test compound 3 μM, DMSO = 0%, orexin A (human) 10 nM = 100%
Provide the reading as a plain figure in %.

The molecule listed as `CC(C)n1cnc2c(c1=O)[C@@H](Cc1cccc(-c3cccc(F)c3)c1F)[C@@H](NS(=O)(=O)C1CC1)CC2` has a reported 0X2R agonist activity (3 μM, %) of 95

Looking up `CC(C)n1cnc2c(c1=O)[C@@H](Cc1cccc(-c3ccccc3F)c1)[C@@H](NS(=O)(=O)C1CC1)CC2` , I found its 0X2R agonist activity (3 μM, %) recorded as 101

Query Cc1nc2c(c(=O)n1C(C)C)[C@@H](Cc1cccc(-c3ccccc3)c1)[C@@H](NS(C)(=O)=O)CC2 (racemic) yields 0X2R agonist activity (3 μM, %) of 97

Form field 0X2R agonist activity (3 μM, %), entry CCn1ccc2c(c1=O)[C@@H](Cc1cccc(-c3ccccc3F)c1)[C@@H](NS(C)(=O)=O)CC2 (racemic) : 105

GET /value?item= CC(C)n1cnc2c(c1=O)[C@@H](Cc1cccc(-c3ccccc3)c1)[C@@H](NS(=O)(=O)C1(F)CC1)CC2 (racemic) &field=0X2R agonist activity (3 μM, %) returns 96

The reported value for CCc1ccc2n(c1=O)C(Cc1cccc(-c3cc(F)cc(F)c3)c1)C(NS(C)(=O)=O)CC2 (racemic) in terms of 0X2R agonist activity (3 μM, %) is 98

Input Cc1cccc(-c2cccc(C[C@@H]3c4c(ncn(C(C)C)c4=O)CC[C@@H]3NS(C)(=O)=O)c2)c1 (racemic) . Output 0X2R agonist activity (3 μM, %): 103

====

Please provide measured 0X2R agonist activity (3 μM, %) for the entries that follow.
Target: human orexin type 2 receptor (Homo sapiens, UniProt O43614)
Construct: expressed in transfected cells
Experiment: Measurement of orexin type 2 receptor agonist activity (calcium fluorescence, Fluo-4 AM, FDSS) in CHO cells forcibly expressing human OX2 receptor
Assay type: cell-based
Details: test compound 3 μM, DMSO = 0%, orexin A (human) 10 nM = 100%
Source text: To obtain a cell clone stably expressing human orexin type 2 receptor, human orexin type 2 receptor cDNA was inserted into pcDNA3.1(+) plasmid vector (Invitrogen), and a plasmid DNA for expression of human orexin type 2 receptor (pcDNA3.1(+)/hOX2R) was cloned. The plasmid DNA was introduced into CHO-dhfr cell by an electroporation method, and human orexin type 2 receptor expressing clone cells were obtained by limiting dilution method by using G418 drug resistance as a selection marker. […]
Kindly answer with a numeric value in %, unit omitted.

Measured 0X2R agonist activity (3 μM, %) of CCn1ccc2c(c1=O)[C@@H](Cc1cccc(-c3cccn(C)c3=O)c1)[C@@H](NS(C)(=O)=O)CC2 (racemic) : 98

Lab note: measured 0X2R agonist activity (3 μM, %) of CCc1c(C)n(C)c2c(c1=O)[C@@H](Cc1cccc(-c3ccccc3)c1)[C@@H](NS(C)(=O)=O)CC2 (racemic) was 82

Short answer for CS(=O)(=O)N[C@H]1CCc2ccc(C#N)c(=O)n2[C@H]1Cc1cccc(-c2ccccc2)c1 (racemic) : 0X2R agonist activity (3 μM, %) was 97

Quick note, 0X2R agonist activity (3 μM, %) for `CC(C)n1cnc2c(c1=O)[C@@H](Cc1cccc(-c3cc(F)cc(F)c3)c1)[C@@H](NS(=O)(=O)C1CC1)CC2` landed at 85

So for CC1OC[C@@H]2CC[C@H](NS(C)(=O)=O)[C@H](Cc3cccc(-c4cccc(F)c4)c3)N2C1=O (relative stereo) , the logged 0X2R agonist activity (3 μM, %) turned out to be 94

So for Cc1cnc2n(c1=O)[C@@H](Cc1cccc(-c3ccccc3)c1)[C@@H](NS(C)(=O)=O)CC2 (racemic) , the logged 0X2R agonist activity (3 μM, %) turned out to be 89

====

Target: human orexin type 2 receptor (Homo sapiens)
Construct: expressed in transfected cells
Sequence (O43614 1-444): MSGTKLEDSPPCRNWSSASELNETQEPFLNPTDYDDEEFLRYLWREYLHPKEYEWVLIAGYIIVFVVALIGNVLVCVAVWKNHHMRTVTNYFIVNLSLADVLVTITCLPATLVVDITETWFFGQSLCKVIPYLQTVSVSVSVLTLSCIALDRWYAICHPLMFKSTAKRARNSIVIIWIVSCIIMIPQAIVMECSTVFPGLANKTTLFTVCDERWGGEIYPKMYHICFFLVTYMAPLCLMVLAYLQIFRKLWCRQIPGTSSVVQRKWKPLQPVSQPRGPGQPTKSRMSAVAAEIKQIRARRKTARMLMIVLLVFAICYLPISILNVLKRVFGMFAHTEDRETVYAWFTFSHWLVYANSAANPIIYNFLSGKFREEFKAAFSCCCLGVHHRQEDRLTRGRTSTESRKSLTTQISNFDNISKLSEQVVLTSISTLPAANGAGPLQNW
Assay: Measurement of orexin type 2 receptor agonist activity (calcium fluorescence, Fluo-4 AM, FDSS) in CHO cells forcibly expressing human OX2 receptor
Format: cell-based
Conditions: test compound 3 μM, DMSO = 0%, orexin A (human) 10 nM = 100%
Entry flag: true (1) if 0X2R agonist activity (3 μM, %) reaches 90%; false (0) if it does not.

Form field: 0X2R agonist activity (3 μM, %) at least 90%? Entry: Cc1n[nH]c(=O)c2c1CC[C@H](NS(C)(=O)=O)[C@@H]2Cc1cccc(-c2ccccc2)c1 (racemic)
false (0)

Please indicate if the recorded 0X2R agonist activity (3 μM, %) for Cc1nn(C)c(=O)c2c1CC[C@H](NS(C)(=O)=O)[C@@H]2Cc1cccc(-c2ccccc2)c1 (racemic) meets or exceeds 90%.
false (0)

Say whether CC(C)n1cnc2c(c1=O)[C@@H](Cc1cccc(-c3ccccc3)c1F)[C@@H](NS(=O)(=O)C1CC1)[C@H](F)C2 (relative stereo) shows 0X2R agonist activity (3 μM, %) of 90% or more.
true (1)

Quick check: does CS(=O)(=O)N[C@H]1CCc2cccc(=O)n2[C@H]1Cc1cccc(-c2ccccc2)c1 (racemic) have 0X2R agonist activity (3 μM, %) greater than or equal to 90%?
false (0)

Determine whether measured 0X2R agonist activity (3 μM, %) meets or exceeds 90% for CCn1ccc2c(c1=O)[C@@H](Cc1cccc(-c3ccccc3)c1F)[C@@H](NS(C)(=O)=O)CC2=O (racemic)
true (1)

API: above_or_equal(metric=0X2R agonist activity (3 μM, %), cutoff=90%) for item CCn1ccc2c(c1=O)[C@@H](Cc1cccc(-c3ccccc3)c1F)[C@@H](NS(C)(=O)=O)C[C@@H]2F (racemic)
true (1)

====

Can you tell me 0X2R agonist activity (3 μM, %) for the items I'm about to list?
Biological target: human orexin type 2 receptor (Homo sapiens, UniProt O43614)
Construct: expressed in transfected cells
Sequence (O43614 1-444): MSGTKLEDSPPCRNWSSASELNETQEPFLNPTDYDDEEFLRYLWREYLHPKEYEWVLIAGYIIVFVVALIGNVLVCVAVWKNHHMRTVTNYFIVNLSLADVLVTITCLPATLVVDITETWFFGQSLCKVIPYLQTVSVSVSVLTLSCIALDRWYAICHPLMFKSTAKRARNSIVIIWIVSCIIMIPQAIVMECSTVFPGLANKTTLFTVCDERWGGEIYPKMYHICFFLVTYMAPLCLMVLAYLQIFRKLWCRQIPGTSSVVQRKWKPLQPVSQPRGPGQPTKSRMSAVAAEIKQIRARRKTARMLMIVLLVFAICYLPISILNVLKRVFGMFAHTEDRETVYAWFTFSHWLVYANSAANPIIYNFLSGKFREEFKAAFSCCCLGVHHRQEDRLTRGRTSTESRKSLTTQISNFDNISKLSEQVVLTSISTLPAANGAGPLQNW
Experiment: Measurement of orexin type 2 receptor agonist activity (calcium fluorescence, Fluo-4 AM, FDSS) in CHO cells forcibly expressing human OX2 receptor
Assay type: cell-based
Settings: test compound 3 μM, DMSO = 0%, orexin A (human) 10 nM = 100%
Numeric only. Scale: %

The compound listed as Cc1ccc2n(c1=O)[C@@H](Cc1cccc(-c3cccc(F)c3)n1)[C@@H](NS(C)(=O)=O)CC2 (racemic) has a reported 0X2R agonist activity (3 μM, %) of 86

Quick note, 0X2R agonist activity (3 μM, %) for CC(C)n1cnc2c(c1=O)[C@@H](Cc1cccc(-c3ccccc3F)c1F)[C@@H](NS(C)(=O)=O)CC2 (relative stereo) landed at 105

Lab note: CC(C)=Cc1cccc(C[C@@H]2c3c(ncn(C(C)C)c3=O)CC[C@@H]2NS(=O)(=O)C2(F)CC2)c1 (racemic) gave 0X2R agonist activity (3 μM, %) of 92

response.value for CC(C)n1cnc2c(c1=O)[C@@H](Cc1cccc(-c3ccn(C)n3)c1)[C@@H](NS(C)(=O)=O)CC2 (racemic) (field: 0X2R agonist activity (3 μM, %)) = 97

Reported 0X2R agonist activity (3 μM, %) ( CS(=O)(=O)N[C@H]1CCc2ncn(CC3CC3)c(=O)c2[C@H]1Cc1cccc(-c2ccccc2)c1 (racemic) ) = 79

Lab note: measured 0X2R agonist activity (3 μM, %) of CS(=O)(=O)N[C@H]1CCc2ccc(F)c(=O)n2[C@H]1Cc1cccc(-c2ccccc2)c1 (racemic) was 95
